# target of assay: HIV integrase (Human immunodeficiency virus type 1 group M subtype B, UniProt P12497, F1332H)
# Construct: HIV integrase full length gene; made in house; host or cells: Escherichia coli BL21(DE3)
# method: Determination of enzyme (HIV integrase) inhibitory activity (strand transfer, microtiter plate, absorbance at 450 nm)
# Assay type: biochemical, HIV (Human Immunodeficiency Virus (type 1))
# stated conditions: recombinant HIV integrase (F185H) expressed in E. coli; donor DNA on streptavidin plate, digoxigenin target DNA; 37° C.
# Lookup of reported log10 IC50 keyed by entry
Units before log transform: nM; reported quantity: IC50; transform: log10.

Ask | log10 IC50 for "CCOc1cc(Cc2cccc(Cl)c2F)cc2c(=O)c(C(=O)O)cn(CCO)c12" ?
Reply | 0.93

Ask | log10 IC50 for "O=C(O)c1cn(CCO)c2c(F)cc(Cc3cccc(Cl)c3Cl)cc2c1=O" ?
Reply | 1.52

Ask | log10 IC50 for "O=C(O)c1cn(CCO)c2c(C(F)(F)F)cc(Cc3cccc(Cl)c3F)cc2c1=O" ?
Reply | 1.84

Ask | log10 IC50 for "O=C(O)c1cn(C(CO)CO)c2ccc(Cc3cccc(Cl)c3F)cc2c1=O" ?
Reply | 1.04

Ask | log10 IC50 for "CC(C)Oc1cc2c(cc1Cc1cccc(Cl)c1F)c(=O)c(C(=O)O)cn2[C@@H](C)CO" ?
Reply | 0.69

Ask | log10 IC50 for O=C(O)c1cn(CCO)c2ccc(Cc3cccc(Cl)c3Cl)cc2c1=O [Example 1-1] ?
Reply | 1.46

Ask | log10 IC50 for "CS(=O)(=O)NCCn1cc(C(=O)O)c(=O)c2cc(Cc3cccc(Cl)c3Cl)ccc21" ?
Reply | 2.56

The measured values listed here are drawn from patent US8232401B2.
